Known growth of a selection of compounds
- Tested on: NCI-H322M lung
- protocol-text: NCI-60 one-dose screen, 48 h (100 = growth as untreated, 0 = no growth, -100 = all killed)
- conditions-used: 10 µM
This is part of a sample that, as a whole, favours compounds with a hit. Of some 83,000 tested, about 20% had one in any assay. Calls of active or inactive are those of the source. Rule for the calls: active = growth percent below 10; inactive = the rest.

[
  {
    "compound": "O=C(/C=C/c1cc2ccccc2[nH]c1=O)c1ccc2c(c1)OCO2",
    "growth": "92% (inactive)"
  },
  {
    "compound": "c1ccc(CP(Cc2ccccc2)c2ccccc2)cc1",
    "growth": "87.3% (inactive)"
  },
  {
    "compound": "CC(=O)N(C)c1ccc(Nc2ccc(Nc3ccc(N(C)C(C)=O)cc3)c3c2C(=O)c2ccccc2C3=O)cc1",
    "growth": "75.4% (inactive)"
  },
  {
    "compound": "Nc1ccc2c(c1)C1(CCC2)NC(=O)NC1=O (stereo not given)",
    "growth": "103% (inactive)"
  },
  {
    "compound": "COc1ccc(Nc2cc(C)nc(NCCCNc3ccnc4cc(Cl)ccc34)n2)cc1",
    "growth": "-3.79% (active)"
  },
  {
    "compound": "CC(=O)c1nc2ccccc2n1CCNC(N)=O",
    "growth": "95% (inactive)"
  },
  {
    "compound": "CCN(CC)CCSCCCNc1c2ccc(Cl)cc2nc2ccc(OC)cc12",
    "growth": "-35.6% (active)"
  },
  {
    "compound": "COC(=O)C1(C)Cc2cc(OC(C)=O)c(OC(C)=O)cc2N1 (stereo not given)",
    "growth": "116% (inactive)"
  },
  {
    "compound": "CO/N=C(/C(=O)NC1C(=O)N2C(C(=O)O)=C(COC(N)=O)CSC12)c1ccco1 (stereo not given)",
    "growth": "100% (inactive)"
  },
  {
    "compound": "Nc1nc(Nc2ccccc2)n[nH]1",
    "growth": "108% (inactive)"
  },
  {
    "compound": "CCOC(=O)c1ccc(NC(=O)Nc2ncc(Cl)cc2Cl)cc1",
    "growth": "99.3% (inactive)"
  },
  {
    "compound": "COc1ccc(-c2cc(-c3cccc(NS(C)(=O)=O)c3)nc(N)c2C#N)cc1",
    "growth": "44.4% (inactive)"
  },
  {
    "compound": "Cc1cccc2c1O/C(=C\\c1ccc([N+](=O)[O-])o1)C2=O",
    "growth": "37.9% (inactive)"
  },
  {
    "compound": "CCOC1(OCC)OC(c2ccccc2)=C(C#N)C(/C=C\\c2ccccc2)C1(OCC)OCC (stereo not given)",
    "growth": "84.3% (inactive)"
  },
  {
    "compound": "COc1ccc(NC2=NC(C)(CO)CS2)cc1 (stereo not given)",
    "growth": "102% (inactive)"
  },
  {
    "compound": "COc1ccc(S(=O)(=O)NCCCNc2nccc(-c3c(-c4ccc(F)cc4)nc4sccn34)n2)cc1",
    "growth": "52.7% (inactive)"
  },
  {
    "compound": "Cn1c(C(N)=O)cc2c1-c1nc(Nc3ccccc3)ncc1CCC2",
    "growth": "46.6% (inactive)"
  },
  {
    "compound": "CCOC(=O)C(CSC(c1ccccc1)(c1ccccc1)c1ccccc1)NC(=O)C(CSC(c1ccccc1)(c1ccccc1)c1ccccc1)NC(c1ccccc1)(c1ccccc1)c1ccccc1 (stereo not given)",
    "growth": "101% (inactive)"
  },
  {
    "compound": "CCN(CC)CCOc1nc2ccccc2c2c1-c1ccc(OC)cc1C2=O",
    "growth": "-29.3% (active)"
  },
  {
    "compound": "CN(C)CCN=c1nc2c(c(N)n1-c1ccccc1)c(=S)n(-c1ccccc1)c(=S)n2-c1ccccc1",
    "growth": "58.5% (inactive)"
  },
  {
    "compound": "CCCCCCN1CCN(Cc2ccc(N(CC)CC)cc2)C(=O)C1=O",
    "growth": "32% (inactive)"
  },
  {
    "compound": "CCCC(F)C(=O)O (stereo not given)",
    "growth": "90.9% (inactive)"
  },
  {
    "compound": "S=C1SCC(c2ccccc2)S1 (stereo not given)",
    "growth": "111% (inactive)"
  },
  {
    "compound": "COc1ccc(-c2nc3ccccn3c2-c2nnc(-c3cc(OC)c(OC)c(OC)c3)o2)cc1",
    "growth": "57.3% (inactive)"
  },
  {
    "compound": "O=C1/C(=C\\c2ccccc2)CN(C(=O)c2ccccc2)C/C1=C\\c1ccccc1",
    "growth": "75.8% (inactive)"
  },
  {
    "compound": "CCC(=O)N1C/C(=C/c2ccc(Br)cc2)C(=O)/C(=C/c2ccc(Br)cc2)C1",
    "growth": "-27.2% (active)"
  },
  {
    "compound": "O=C(Nc1cccc(Cl)c1)Nc1nccs1",
    "growth": "92.6% (inactive)"
  },
  {
    "compound": "C=C(NC(=O)C(=C)NC(=O)c1csc(C2=NC3c4csc(n4)C4NC(=O)c5csc(n5)C(C(C)(O)C(C)O)NC(=O)C5CSC(=N5)/C(=C/C)NC(=O)C(C(C)O)NC(=O)c5csc(n5)C3(CC2)NC(=O)C(C)NC(=O)C(=C)NC(=O)C(=C)NC(=O)C(C(C)C)NC2C=Cc3c(C(C)O)cc(nc3C2O)C(=O)OC4C)n1)C(N)=O (stereo not given)",
    "growth": "45.9% (inactive)"
  },
  {
    "compound": "O=C1/C(=C\\c2cn(C(=O)c3ccc(Cl)cc3)c3ccccc23)c2ccccc2N1C(=O)c1ccc(Cl)cc1",
    "growth": "98.6% (inactive)"
  },
  {
    "compound": "O=[N+]([O-])c1cccc(-c2ncc(-c3ccc(Cl)cc3Cl)[nH]2)c1",
    "growth": "131% (inactive)"
  },
  {
    "compound": "CCOC(=O)c1ccoc1",
    "growth": "85.1% (inactive)"
  },
  {
    "compound": "CNc1ccc(CSc2ccc(C)cc2)cc1",
    "growth": "88.9% (inactive)"
  },
  {
    "compound": "CCOC(=O)N1C/C(=C/c2ccc(OC)cc2)C(=O)/C(=C/c2ccc(OC)cc2)C1",
    "growth": "71.1% (inactive)"
  },
  {
    "compound": "COc1cc(OC)cc(-c2cncn2-c2ccc(-c3nc4cc(OC)cc(OC)c4s3)cc2)c1",
    "growth": "82.8% (inactive)"
  },
  {
    "compound": "COc1ccc(-c2nn(-c3cccc(NC(=O)c4cccc(C(F)(F)F)c4)c3)cc2-c2ccncc2)cc1Cl",
    "growth": "47.3% (inactive)"
  },
  {
    "compound": "CC(=O)N1C/C(=C/c2ccc(Cl)cc2)C(=O)/C(=C/c2ccc(Cl)cc2)C1",
    "growth": "-9.19% (active)"
  },
  {
    "compound": "COc1ccc2c(c1OC)O/C(=C\\c1ncc([N+](=O)[O-])n1C)C2=O",
    "growth": "84.1% (inactive)"
  },
  {
    "compound": "CC[C@H](C)C(=O)O[C@H]1CCC=C2C=C[C@H](C)C(CCC3C[C@@H](O)CC(=O)O3)[C@H]21 (stereo not given in full)",
    "growth": "44.6% (inactive)"
  },
  {
    "compound": "Cc1ccc(NC(=O)Nc2cccnc2)cc1NC(=O)Nc1cccnc1",
    "growth": "100% (inactive)"
  },
  {
    "compound": "O=C(Nc1ccncc1)C(=O)c1cn(S(=O)(=O)c2cc(Cl)cc(Cl)c2)c2ccccc12",
    "growth": "99.6% (inactive)"
  }
]
